Where do the numbers come from? From patent US6323185.

subjectOfTest: HIV-1 reverse transcriptase (HIV-1 (BH10), UniProt P03366;P03366 P03366:600-1159,P03366:600-1039)
protocolDescription: inhibition; gapped duplex DNA template; duplicate 10.0 uM
conditionDescription: intramolecular G4 (G-octet)
quantity: IC50 (µM)
One number for each entry, in µM.

[Q] Look up IC50: GTGGTGGGTGGGTGGGT (ssDNA, PS at first and last internucleoside linkages, 3'-OH) [T30177 (AR177, Zintevir)]
[A] 8
